# Tested on: Clone20 osteoblast Shn3 3'UTR firefly luciferase, 24 h
# assay_method_text: Shn3 3'UTR reporter inhibitors, dose response, cell-based, Clone20 osteoblasts, luminescence, dry powder, set 2 (AID 743417)
Inconclusive results are not listed.
Could you please report measured AC50 for the items listed next?

Recorded AC50, per entry:
>>> df
                                   molecule  experimental_result
0  COc1c(CC=C(C)C)cc(C2CC(=O)c3c(O)cc(O)cc3O2)cc1CC=C(C)C (stereo not given)              5.42 µM
1         Cn1c(SCc2cccc(Br)c2)nc2ccccc2c1=O              7.68 µM
2    CN(C)C1=NC[C@H](Cc2ccccc2)N1CCCC1CCCC1              2.63 µM
3  Cn1cc(CN(CCO)Cc2cccs2)c(-c2cccc(Cl)c2)n1              3.25 µM
4  CCOc1cc(C)c(S(=O)(=O)Nc2ccc3cn[nH]c3c2)cc1C              4.89 µM
5         COc1ccc(CCNc2ncnc3sc(C)cc23)cc1OC            < 0.26 µM
6  COc1ccc(C(NC(=O)c2cccnc2)c2cc(Cl)c3cccnc3c2O)cc1OC (stereo not given)              1.88 µM
7  CC1(C)CC[C@]2(C(=O)n3ccnc3)CC[C@]3(C)[C@H](C(=O)C=C4[C@@]5(C)C=C(C#N)C(=O)C(C)(C)[C@@H]5CC[C@]43C)[C@@H]2C1            < 0.26 µM

Quick one: give me AC50 for each item below, same order please.
1. CS(=O)(=O)c1nc(-c2ccc(Br)cc2)cc(-c2ccccc2)c1C#N
2. CC(C)C[C@@H](CO)N(Cc1ccccc1)S(=O)(=O)N(Cc1ccccc1)[C@H](CO)CC(C)C

Ans:
1: 4.72 µM; 2: 10.1 µM

----------
# Tested on: Clone20 osteoblast Shn3 3'UTR firefly luciferase, 24 h
# assay_method_text: Shn3 3'UTR reporter inhibitors, dose response, cell-based, Clone20 osteoblasts, luminescence, dry powder, set 2 (AID 743417)
Records with an inconclusive call do not appear. The source made the active and inactive calls.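 The calls were made as follows: active = compounds lowering the luciferase signal with a fitted half-maximal dose at most twice their top valid dose (cut at about 30 µM in these data); inconclusive = flat fits with moderate signal loss, or poor fits; inactive = the rest.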
Respond with a class label; see true for active, false for inactive

Use these answered entries as a reference point.
>>> df
                                   compound                               system_name  classification
0            CCOC(=O)c1nc(S(C)(=O)=O)ncc1Cl  Clone20 osteoblast Shn3 3'UTR firefly luciferase, 24 h            true
1  O=C(OC12CC3CC(CC(C3)C1)C2)c1ccc(NCc2cc(O)ccc2O)cc1  Clone20 osteoblast Shn3 3'UTR firefly luciferase, 24 h            true
2       Cc1ccc(S(=O)(=O)Nc2ccc3ncccc3c2)cc1  Clone20 osteoblast Shn3 3'UTR firefly luciferase, 24 h            true
3  C=CCOC(=O)C1=C(C)N=C2SCCC(=O)N2C1c1cccs1 (stereo not given)  Clone20 osteoblast Shn3 3'UTR firefly luciferase, 24 h           false
4  CC(C)(C)C(=O)NC(=S)NNC(=O)c1sc2ccccc2c1Cl  Clone20 osteoblast Shn3 3'UTR firefly luciferase, 24 h            true

Q: Would you mind telling me which call this test gave COc1ccc(-c2nc(-c3ccc(NC(=O)c4ccncc4)cc3)no2)cc1OC ?
Ans: true

Q: Would you mind telling me which call this test gave COC(=O)c1cn(NC(=O)c2cc([N+](=O)[O-])ccc2F)c(=O)c2ccccc12 ?
Ans: true

Q: Would you mind telling me which call this test gave CC(C)(C)NC(=O)CSc1nc2ccc(NC(=O)CSc3nnnn3Cc3ccccc3)cc2s1 ?
Ans: true

Q: Would you mind telling me which call this test gave Cc1ccc(Oc2c(C(N)=O)cc([N+](=O)[O-])cc2[N+](=O)[O-])cc1 ?
Ans: true

Q: Would you mind telling me which call this test gave Cc1nc(-n2[nH]c3c(c2=O)CCCC3)[nH]c(=O)c1Cc1ccccc1 ?
Ans: true

Recorded values, source PubChem BioAssay AID743417.
